# Tested on: HBV DNA
# Experiment summary: In vitro anti-HBV activity: replication of HBV DNA in 2.2.15 cells (dot hybridization)
# Format: cell-based, Hepatitis B virus (HBV)
# Setup conditions: selectivity index
Reported property: DNA replication SI

[[record]]
compound = "CCOC(=O)c1c(C[S+]([O-])c2ccc(F)cc2)n(C2CC2)c2cc(Br)c(O)c(Cn3ccnc3)c12 (stereo not drawn) [Example 117]"
assay_result = 4.87

[[record]]
compound = "CCOC(=O)c1c(CS(=O)(=O)c2ccc(C(F)(F)F)cc2)n(C)c2cc(Br)c(O)c(Cn3ccnc3C)c12 [Example 180]"
assay_result = 14.43

[[record]]
compound = "CCOC(=O)c1c(CS(=O)(=O)Cc2ccco2)n(C2CC2)c2cc(Br)c(O)c(Cn3ccnc3)c12 [Example 162]"
assay_result = 2.48

[[record]]
compound = "CCOC(=O)c1c(CS(=O)(=O)c2ccc(C)cc2)n(C)c2ccc(O)c(Cn3ccnc3)c12 [Example 164]"
assay_result = 8.9

[[record]]
compound = "CCOC(=O)c1c(C[S+]([O-])Cc2ccoc2)n(C)c2ccc(O)c(CN3CCCCC3)c12.Cl (stereo not drawn) [Example 77]"
assay_result = 4.09

[[record]]
compound = "CCOC(=O)c1c(CS(=O)(=O)Cc2ccc(F)cc2)n(C)c2cc(Br)c(O)c(Cn3ccnc3)c12 [Example 163]"
assay_result = 31.45

[[record]]
compound = "CCOC(=O)c1c(C[S+]([O-])c2ccc(F)cc2)n(C)c2cc(Br)c(O)c(CNC(=N)N)c12 (stereo not drawn) [Example 153]"
assay_result = 4.27

[[record]]
compound = "CCOC(=O)c1c(C[S+]([O-])c2ccc(F)c(F)c2)n(C2CC2)c2cc(Br)c(O)c(Cn3ccnc3)c12 (stereo not drawn) [Example 119]"
assay_result = 5.8

[[record]]
compound = "CCOC(=O)c1c(CSc2nc3ccccc3[nH]2)n(C)c2cc(Br)c(O)c(CNC(=N)N)c12 [Example 189]"
assay_result = 20.91

[[record]]
compound = "CCOC(=O)c1c(CS(=O)(=O)c2ccc(C(F)(F)F)cc2)n(C)c2cc(Br)c(O)c(CN3CCCC3)c12 [Example 82]"
assay_result = 2.34

[[record]]
compound = "CCOC(=O)c1c(C[S+]([O-])c2ccccc2)n(C)c2cc(Br)c(O)c(Cn3ccnc3)c12 (stereo not drawn) [Example 116]"
assay_result = 3.17

[[record]]
compound = "CCOC(=O)c1c(C[S+]([O-])c2ccc(C)cc2)n(C)c2cc(Br)c(O)c(CNC(=N)N)c12.Cl (stereo not drawn) [Example 152]"
assay_result = 18.8

[[record]]
compound = "CCOC(=O)c1c(CS(=O)(=O)Cc2ccccc2)n(C)c2cc(Br)c(O)c(Cn3ccnc3C)c12 [Example 168]"
assay_result = 5.06

[[record]]
compound = "CCOC(=O)c1c(CS(=O)(=O)c2cccc(OC)c2)n(C)c2cc(Br)c(O)c(CN(C)C)c12 [Example 55]"
assay_result = 9.7

[[record]]
compound = "CCOC(=O)c1c(C[S+]([O-])c2ccc(C(F)(F)F)cc2)n(C2CC2)c2cc(Br)c(O)c(CN(C)C)c12 (stereo not drawn) [Example 79]"
assay_result = 3.83


* * *

Entries with their measured TC50, system Madin-Darby canine kidney (MDCK) cells:
Reported property: TC50

[[record]]
compound = "CCOC(=O)c1c(CSCc2ccccc2F)n(C2CC2)c2cc(Br)c(O)c(Cn3cncn3)c12"
assay_result = "62.5 µg/mL"

[[record]]
compound = "CCOC(=O)c1c(CS(=O)(=O)Cc2ccccc2)n(C2CC2)c2cc(Br)c(O)c(Cn3ccnc3C)c12"
assay_result = "78.75 µg/mL"

[[record]]
compound = "CCOC(=O)c1c(CSc2ccccc2)n(C)c2cc(Br)c(O)c(CN(C)C)c12.Cl.O [Abidol, reference compound]"
assay_result = "62.5 µg/mL"


* * *

Below, each entry is listed with its recorded DNA replication SI.
# Tested on: HBV DNA
# Experiment summary: In vitro anti-HBV activity: replication of HBV DNA in 2.2.15 cells (dot hybridization)
# Type: cell-based, Hepatitis B virus (HBV)
# Setup conditions: selectivity index
Reported property: DNA replication SI

[[record]]
compound = "CCOC(=O)c1c(C[S+]([O-])c2ccccc2C)n(C)c2cc(Br)c(O)c(CN3CCOCC3)c12 (stereo not shown)"
reported_property = "DNA replication SI"
assay_result = 3.03

[[record]]
compound = "CCOC(=O)c1c(C[S+]([O-])c2ccc(F)cc2)n(C)c2cc(Br)c(O)c(CN3CCOCC3)c12 (stereo not shown)"
reported_property = "DNA replication SI"
assay_result = ">8.7"

[[record]]
compound = "CCOC(=O)c1c(C[S+]([O-])c2cccc(Cl)c2)n(C)c2cc(Br)c(O)c(CN3CCOCC3)c12 (stereo not shown)"
reported_property = "DNA replication SI"
assay_result = 10.8

[[record]]
compound = "CCOC(=O)c1c(C[S+]([O-])Cc2ccccc2F)n(C2CC2)c2cc(Br)c(O)c(Cn3ccnc3C)c12 (stereo not shown)"
reported_property = "DNA replication SI"
assay_result = 10.74

[[record]]
compound = "CCOC(=O)c1c(C[S+]([O-])Cc2ccc(F)cc2)n(C)c2cc(Br)c(O)c(CN3CCCCC3)c12 (stereo not shown)"
reported_property = "DNA replication SI"
assay_result = 11.14

[[record]]
compound = "CCOC(=O)c1c(C[S+]([O-])Cc2ccco2)n(C2CC2)c2cc(Br)c(O)c(Cn3ccnc3)c12 (stereo not shown)"
reported_property = "DNA replication SI"
assay_result = 4.16

[[record]]
compound = "CCOC(=O)c1c(CSc2cccc(F)c2)n(C)c2cc(Br)c(O)c(Cn3ccnc3)c12"
reported_property = "DNA replication SI"
assay_result = 7.66


* * *

# Target or system: HIV-1 protease (Human immunodeficiency virus type 1 group M subtype B)
# Construct: The genetically engineered target enzyme (HIV-1 protease, preserved at −85° C.)
# Experiment summary: Anti-HIV-1 protease activity (fluorescence labeled substrate)
# Type: biochemical
# Setup conditions: sample concentration 0.5 ug/ml
Where a name gives a salt, the structure may show the parent alone.
Class true: inhibition ratio at 0.5 ug/ml at least 6. Class false: inhibition ratio at 0.5 ug/ml below 6.

[[record]]
molecule = "CCOC(=O)c1c(C[S+]([O-])c2ccc(F)cc2)n(C)c2cc(Br)c(O)c(CN3CCOCC3)c12 (stereo not shown)"
target_or_system = "HIV-1 protease (Human immunodeficiency virus type 1 group M subtype B)"
label_class = "true"

[[record]]
molecule = "CCOC(=O)c1c(CS(=O)(=O)c2cccc(OC)c2)n(C)c2cc(Br)c(O)c(CN(C)C)c12"
target_or_system = "HIV-1 protease (Human immunodeficiency virus type 1 group M subtype B)"
label_class = "false"

[[record]]
molecule = "CCOC(=O)c1c(C[S+]([O-])c2ccccc2)n(C)c2cc(Br)c(O)c(Cn3ccnc3)c12 (stereo not shown)"
target_or_system = "HIV-1 protease (Human immunodeficiency virus type 1 group M subtype B)"
label_class = "false"

[[record]]
molecule = "CCOC(=O)c1c(C[S+]([O-])c2ccc(F)cc2)n(C)c2cc(Br)c(O)c(CNC(=N)N)c12 (stereo not shown)"
target_or_system = "HIV-1 protease (Human immunodeficiency virus type 1 group M subtype B)"
label_class = "true"

[[record]]
molecule = "CCOC(=O)c1c(C[S+]([O-])c2ccc(F)cc2)n(C2CC2)c2cc(Br)c(O)c(Cn3ccnc3C)c12 (stereo not shown)"
target_or_system = "HIV-1 protease (Human immunodeficiency virus type 1 group M subtype B)"
label_class = "true"

[[record]]
molecule = "CCOC(=O)c1c(CSc2ccc(F)cc2)n(C2CC2)c2cc(Br)c(O)c(CN3CCN(C)CC3)c12 [Example 19, dihydrochloride]"
target_or_system = "HIV-1 protease (Human immunodeficiency virus type 1 group M subtype B)"
label_class = "false"


* * *

Below, each entry is listed with its recorded inhibition ratio at 10 ug/ml.
# Target or system: HIV-1 protease (Human immunodeficiency virus type 1 group M subtype B, UniProt P04585)
# Construct: The genetically engineered target enzyme (HIV-1 protease, preserved at −85° C.)
# Experiment summary: Anti-HIV-1 protease activity (fluorescence labeled substrate)
# Type: biochemical
# Setup conditions: sample concentration 10 ug/ml
Reported property: inhibition ratio at 10 ug/ml

[[record]]
compound = "CCOC(=O)c1c(CS(=O)(=O)c2cccc(OC)c2)n(C)c2cc(Br)c(O)c(CN(C)C)c12"
assay_result = 0.1

[[record]]
compound = "CCOC(=O)c1c(C[S+]([O-])c2ccc(F)cc2)n(C)c2cc(Br)c(O)c(CNC(=N)N)c12 (centres unmarked)"
assay_result = 11.2

[[record]]
compound = "CCOC(=O)c1c(CS(=O)(=O)c2ccc(F)c(F)c2)n(C2CC2)c2cc(Br)c(O)c(Cn3ccnc3)c12"
assay_result = 29.1

[[record]]
compound = "CCOC(=O)c1c(C[S+]([O-])c2ccc(F)cc2)n(C2CC2)c2cc(Br)c(O)c(Cn3ccnc3C)c12 (centres unmarked)"
assay_result = 6.4

[[record]]
compound = "CCOC(=O)c1c(C[S+]([O-])c2ccccc2C)n(C)c2cc(Br)c(O)c(CN3CCOCC3)c12 (centres unmarked)"
assay_result = 1.9

